protocol: clinical
Set-up: species or system human
measurement-conditions: human, in vivo, t 1/2 alpha, Mean

compound-structure | half-life [min]
Nc1ccn([C@@H]2O[C@H](CO)[C@@H](O)C2(F)F)c(=O)n1 | 2.7

----------
protocol: clinical
Set-up: species or system human
measurement-conditions: human, in vivo, t1/2 beta
observation-type: half-life (min)

compound | units-symbol | test-result
Nc1ccn([C@@H]2O[C@H](CO)[C@@H](O)C2(F)F)c(=O)n1 [Gemcitabine, gemcitabine] | min | 15.2
